Biological target: T1, purified human CD117 ectodomain (R&D Systems #332-SR) (human, UniProt P10721 26-524)
T1 construct: extracellular domain; Bought protein; also called c-kit; purified recombinant human CD117 ectodomain
T1 sequence (P10721 26-524): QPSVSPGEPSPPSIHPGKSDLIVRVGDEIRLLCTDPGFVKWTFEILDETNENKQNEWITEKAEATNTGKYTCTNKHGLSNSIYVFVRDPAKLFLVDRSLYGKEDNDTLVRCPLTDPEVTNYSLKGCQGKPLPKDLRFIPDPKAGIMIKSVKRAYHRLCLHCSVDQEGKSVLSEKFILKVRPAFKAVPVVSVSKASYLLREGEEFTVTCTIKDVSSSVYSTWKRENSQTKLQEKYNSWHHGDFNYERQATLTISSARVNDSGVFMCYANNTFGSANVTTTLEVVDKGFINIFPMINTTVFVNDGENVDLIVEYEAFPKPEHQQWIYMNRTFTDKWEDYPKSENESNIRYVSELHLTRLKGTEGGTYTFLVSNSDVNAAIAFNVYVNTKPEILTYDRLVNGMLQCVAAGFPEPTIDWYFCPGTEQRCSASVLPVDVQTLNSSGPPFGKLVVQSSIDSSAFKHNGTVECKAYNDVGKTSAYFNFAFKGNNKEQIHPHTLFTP
Experiment: BLI, IgG on anti-human Fc sensor, 33 and 11 nM ectodomain;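 further: Kd, kon and koff are apparent values, with Kd reported as the apparent monovalent affinity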
EXPERIMENTAL_ENDPOINT: koff (s⁻¹)
Form entry: value (s⁻¹) — number only.

Consider the binder shown here: HC-248/LC-248 (Ab248) (antibody, V domains shown, IgG on anti-human Fc sensors; hIgG1/hKappa) VH: EVQLVQSGAEVKKPGESLKISCKGSGYRFTTSWIGWVRQMPGKGLEWMGIIYPGDSDTRYSPSFQGQVTISADKSISTAYLQWSSLKASDTAMYYCARHGLGYNGYEGAFDIWGQGTLVTVSS VL: DIQMTQSPSSLSASVGDRVTITCRASQGIGSALAWYQQKPGKAPKLLIYDASTLESGVPSRFSGSGSGTDFTLTISSLQPEDFATYYCQQLNGYPLTFGQGTRLEIK What is its recorded koff?
0.000319

I'd like to know its koff. The binder in question is HC-85/LC-85 (Ab85) (antibody, V domains shown, Purified IgG, hIgG1/hKappa; also called Antibody 85) VH: EVQLVQSGAEVKKPGESLKISCKGSGYSFTNYWIGWVRQMPGKGLEWMAIINPRDSDTRYRPSFQGQVTISADKSISTAYLQWSSLKASDTAMYYCARHGRGYEGYEGAFDIWGQGTLVTVSS VL: DIQMTQSPSSLSASVGDRVTITCRSSQGIRSDLGWYQQKPGKAPKLLIYDASNLETGVPSRFSGSGSGTDFTLTISSLQPEDFATYYCQQANGFPLTFGGGTKVEIK
0.000434

// query koff value for entry HC-77/LC-77 (Ab77) (antibody, IgG1, V domains shown, Purified human antibody tested as an IgG1; hIgG1/hKappa; also called Antibody 77) VH: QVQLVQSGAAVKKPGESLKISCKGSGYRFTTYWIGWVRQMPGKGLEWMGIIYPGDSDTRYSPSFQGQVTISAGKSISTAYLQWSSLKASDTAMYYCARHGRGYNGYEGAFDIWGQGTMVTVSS VL: DIQLTQSPSSLSASVGDRVTITCRASQGVISALAWYQQKPGKAPKLLIYDASILESGVPSRFSGSGSGTDFTLTISSLQPEDFATYYCQQFNSYPLTFGGGTKVEIK
0.000215

Reported koff, binder HC-249/LC-249 (Ab249) (antibody, V domains shown, IgG on anti-human Fc sensors; hIgG1/hKappa) VH: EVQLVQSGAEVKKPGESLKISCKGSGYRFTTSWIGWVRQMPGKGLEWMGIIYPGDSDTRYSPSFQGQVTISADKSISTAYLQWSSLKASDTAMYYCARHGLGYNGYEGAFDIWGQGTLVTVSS VL: DIQMTQSPSSLSASVGDRVTITCRASQGIGSALAWYQQKPGKAPKLLIYDASNLETGVPSRFSGSGSGTDFTLTISSLQPEDFATYYCQQLNGYPLTFGQGTRLEIK : ____
0.000189

Tell me the measured koff of HC-79/LC-79 (Ab79) (antibody, IgG1, V domains shown, Purified human antibody tested as an IgG1; hIgG1/hKappa; also called Antibody 79) VH: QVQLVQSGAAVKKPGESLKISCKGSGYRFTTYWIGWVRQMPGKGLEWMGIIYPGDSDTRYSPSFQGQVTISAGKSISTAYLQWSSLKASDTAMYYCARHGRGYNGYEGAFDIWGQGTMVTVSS VL: DIQLTQSPSSLSASVGDRVTITCRASQGVGSALAWYQQKPGKAPKLLIYDASILESGVPSRFSGSGSGTDFTLTISSLQPEDFATYYCQQFNSYPLTFGGGTKVEIK , please.
0.000478

Values compiled from patent US20240360238A1.
